Source of measurements: PubChem BioAssay (Tox21)

Test: qHTS RealTime-Glo MT Cell Viability Assay in HepG2 cells - 40 hour (AID 1224870); further: on the % scale 0 is the no-effect control and ±100 the full control effect; nearly all actives have a fitted effect of over 50% in size
Conditions: RealTime-Glo luminescence; series mostly up to 76.8 µM
Inconclusive results are not listed. Activity calls are given as the source filed them. The call rests on the fitted dose curve; in most records, active means well fitted cell-killing curve with a large enough effect in the repeat runs; inconclusive means weak or mixed curves, or effect the other way; inactive means flat fitted curve, though single readings scatter.

{"compound": "O=C(c1ccccc1)C1CCCCC1", "activity change, negative = cytotoxic": "inactive"}
{"compound": "CC1=CC(C)C(C=O)CC1 (configuration not stated)", "activity change, negative = cytotoxic": "inactive"}
{"compound": "CO/N=C(/C(=O)N[C@@H]1C(=O)N2C(C(=O)OCOC(=O)C(C)(C)C)=C(C)CS[C@H]12)c1csc(N)n1", "activity change, negative = cytotoxic": "inactive"}
{"compound": "CC(C)(O)C#CC(C)(C)O", "activity change, negative = cytotoxic": "inactive"}
{"compound": "O=C(O)c1ccccc1OP(=O)(O)O", "activity change, negative = cytotoxic": "inactive"}
{"compound": "N[C@@H](C(=O)N[C@@H]1C(=O)N2C(C(=O)O)=C(Cl)CS[C@H]12)c1ccccc1", "activity change, negative = cytotoxic": "0.227% [at 6.97 µM] (inactive)"}
{"compound": "COc1c(N2C[C@@H]3CCCN[C@@H]3C2)c(F)cc2c(=O)c(C(=O)O)cn(C3CC3)c12", "activity change, negative = cytotoxic": "inactive"}
{"compound": "Cc1cnc(NS(=O)(=O)c2ccc(N)cc2)nc1", "activity change, negative = cytotoxic": "inactive"}
{"compound": "CC(C)CCCC(C)N (configuration not stated)", "activity change, negative = cytotoxic": "inactive"}
{"compound": "CN1CC(=O)NC1=N", "activity change, negative = cytotoxic": "inactive"}
{"compound": "NS(=O)(=O)c1cc(C(=O)O)cc(N2CCCC2)c1Oc1ccccc1", "activity change, negative = cytotoxic": "inactive"}
{"compound": "O=C(O)CN(CCOCCOCCN(CC(=O)O)CC(=O)O)CC(=O)O", "activity change, negative = cytotoxic": "0.968% [at 0.29 µM] (inactive)"}
